reported metric: melting point

Some molecules with recorded melting point:
{"mol smiles": "Cc1ncc(Cn2cc(CNC(=O)c3cccc(Cl)c3)nn2)c(N)n1", "reported metric": "melting point", "result": "213 to 214 °C"}
{"mol smiles": "Cc1ncc(Cn2cc(COc3ccc(C(=O)O)cc3)nn2)c(N)n1", "reported metric": "melting point", "result": "> 260 °C"}
{"mol smiles": "Cc1ncc(Cn2cc(COC(=O)COc3ccc(Cl)c(C)c3)nn2)c(N)n1", "reported metric": "melting point", "result": "163 to 165 °C"}
{"mol smiles": "Cc1ncc(Cn2nnc(COc3ccc(F)cc3Cl)c2I)c(N)n1", "reported metric": "melting point", "result": "187 to 189 °C"}
{"mol smiles": "Cc1ncc(Cn2cc(CNC(=O)COc3ccccc3)nn2)c(N)n1", "reported metric": "melting point", "result": "168 to 169 °C"}
{"mol smiles": "Cc1ncc(Cn2cc(COc3ccc(F)cc3Cl)nn2)c(N)n1", "reported metric": "melting point", "result": "169 to 171 °C"}
{"mol smiles": "Cc1ncc(Cn2nnc(CNC(=O)c3cccc([N+](=O)[O-])c3)c2I)c(N)n1", "reported metric": "melting point", "result": "202 to 204 °C"}
{"mol smiles": "Cc1ncc(Cn2nnc(CNC(=O)c3ccc([N+](=O)[O-])cc3Cl)c2I)c(N)n1", "reported metric": "melting point", "result": "183 to 184 °C"}

Now examine the next entry.
Request: Query melting point for Cc1ncc(Cn2nnc(COC(=O)c3ccc(Cl)cc3)c2I)c(N)n1
Response: 192 to 193 °C

----------
Reported melting point by item:

# annotated cases, reported melting point shown
{"molecule": "Cc1ncc(Cn2cc(COc3ccc([N+](=O)[O-])cc3[N+](=O)[O-])nn2)c(N)n1 [Compound 8]", "result": "210 to 211 °C"}
{"molecule": "Cc1ncc(Cn2cc(CNC(=O)c3ccccc3Br)nn2)c(N)n1 [Compound 52]", "result": "233 to 234 °C"}
{"molecule": "Cc1ncc(Cn2nnc(COc3ccccc3Br)c2I)c(N)n1 [Compound 85]", "result": "145 to 147 °C"}
{"molecule": "COc1ccc(OCc2cn(Cc3cnc(C)nc3N)nn2)cc1 [Compound 13]", "result": "115 to 117 °C"}

Now consider a different molecule.
Request: Determine from records and report melting point for Cc1ccc(C(=O)NCc2nnn(Cc3cnc(C)nc3N)c2I)cc1 [Compound 106]
Response: 180 to 182 °C

----------
reported metric: melting point

{"compound": "Cc1ncc(Cn2nnc(CNC(=O)c3ccccc3)c2I)c(N)n1 [Compound 102]", "reported metric": "melting point", "result": "218 to 220 °C"}

Request: Please report the measured melting point for Cc1ncc(Cn2nnc(COc3ccccc3Cl)c2I)c(N)n1 [Compound 86]
Response: 168 to 170 °C

Request: Consider the compound Cc1ncc(Cn2cc(COC(=O)COc3cccc(C(F)(F)F)c3)nn2)c(N)n1 [Compound 62] . State its measured melting point.
Response: 138 to 140 °C

Request: Entry Cc1ccc(OCC(=O)NCc2cn(Cc3cnc(C)nc3N)nn2)cc1 [Compound 70] needs its melting point filled in; supply it.
Response: 117 to 119 °C

Request: Look up and state reported melting point for Cc1ncc(Cn2nnc(COc3ccc(Cl)cc3)c2I)c(N)n1 [Compound 28]
Response: 183 to 185 °C

Request: Name the recorded melting point of the item COc1ccc(OCC(=O)OCc2cn(Cc3cnc(C)nc3N)nn2)cc1 [Compound 58] in your answer.
Response: 128 to 129 °C

----------
reported metric: melting point

Some solved entries appear below for comparison.
{"mol smiles": "Cc1ncc(Cn2cc(COC(=O)COc3ccccc3[N+](=O)[O-])nn2)c(N)n1", "melting point": "158 to 160 °C"}
{"mol smiles": "Cc1ncc(Cn2cc(COc3ccccc3)nn2)c(N)n1", "melting point": "132 to 133 °C"}
{"mol smiles": "Cc1ncc(Cn2cc(COc3ccc(F)cc3)nn2)c(N)n1", "melting point": "178 to 179 °C"}
{"mol smiles": "Cc1ncc(Cn2nnc(CNC(=O)c3ccccc3F)c2I)c(N)n1", "melting point": "204 to 206 °C"}
{"mol smiles": "Cc1ccc(Cl)c(OCc2cn(Cc3cnc(C)nc3N)nn2)c1", "melting point": "184 to 185 °C"}
{"mol smiles": "Cc1ccc(OCc2cn(Cc3cnc(C)nc3N)nn2)cc1", "melting point": "157 to 158 °C"}

Request: Note melting point for the molecule shown: Cc1ncc(Cn2cc(COc3cccc(C(F)(F)F)c3)nn2)c(N)n1
Response: 160 to 161 °C

Request: Look up and report measured melting point for this entry: COc1ccc(OCC(=O)NCc2cn(Cc3cnc(C)nc3N)nn2)cc1
Response: 165 to 166 °C

Request: For the molecule Cc1ncc(Cn2cc(COc3ccc(Br)cc3)nn2)c(N)n1 , report melting point.
Response: 167 to 168 °C

----------
Recorded measurements of inhibition of growth at 12.5 µg/g, one per entry
System: gray mold of cucumber
protocol: Spawn growth rate on agar plates (Embodiment 9)
Format: cell-based, Botrytis cinerea
test conditions: 48 h, Concentration 12.5 μg/g; Table 8
Please reply with the bare figure in % and do not write the unit itself.

Use these answered entries as a reference point.
{"compound": "Cc1ncc(Cn2nnc(COc3ccc(Cl)c(C)c3)c2I)c(N)n1 [Compound 25]", "measure unit": "%", "inhibition of growth at 12.5 µg/g": 40}
{"compound": "Cc1ncc(Cn2nnc(COc3ccc(F)cc3)c2I)c(N)n1 [Compound 82]", "measure unit": "%", "inhibition of growth at 12.5 µg/g": 56}
{"compound": "Cc1ncc(Cn2nnc(COc3ccc(F)cc3Cl)c2I)c(N)n1 [Compound 27]", "measure unit": "%", "inhibition of growth at 12.5 µg/g": 59}
{"compound": "COc1ccc(OCc2nnn(Cc3cnc(C)nc3N)c2I)cc1 [Compound 26]", "measure unit": "%", "inhibition of growth at 12.5 µg/g": 43}
{"compound": "Cc1ncc(Cn2nnc(COc3ccc(C#N)cc3)c2I)c(N)n1 [Compound 31]", "measure unit": "%", "inhibition of growth at 12.5 µg/g": 75}
{"compound": "Cc1ncc(Cn2nnc(COc3ccc(Br)cc3)c2I)c(N)n1 [Compound 84]", "measure unit": "%", "inhibition of growth at 12.5 µg/g": 66}

Request: Tell us which inhibition of growth at 12.5 µg/g value is on record for Cc1ncc(Cn2nnc(COc3ccc(Cl)cc3C)c2I)c(N)n1 [Compound 29]
Response: 47

Request: Read off the recorded inhibition of growth at 12.5 µg/g for Cc1ncc(Cn2nnc(COc3ccccc3Cl)c2I)c(N)n1 [Compound 86]
Response: 40

Request: Answer with the recorded inhibition of growth at 12.5 µg/g for the compound listed here: Cc1ncc(Cn2nnc(COc3ccc(Cl)cc3)c2I)c(N)n1 [Compound 28]
Response: 85

----------
melting point for assorted compounds

{"compound": "Cc1ncc(Cn2cc(CNC(=O)COc3ccc(Br)cc3)nn2)c(N)n1 [Compound 74]", "result": "105 to 106 °C"}
{"compound": "Cc1ncc(Cn2cc(COc3ccc(Cl)c(C)c3)nn2)c(N)n1 [Compound 11]", "result": "142 to 143 °C"}
{"compound": "Cc1ncc(Cn2nnc(COc3ccc([N+](=O)[O-])cc3)c2I)c(N)n1 [Compound 24]", "result": "215 to 217 °C"}
{"compound": "Cc1ncc(Cn2cc(COC(=O)COc3ccc(F)cc3Cl)nn2)c(N)n1 [Compound 60]", "result": "144 to 146 °C"}
{"compound": "Cc1ncc(Cn2nnc(CNC(=O)c3ccccc3Br)c2I)c(N)n1 [Compound 109]", "result": "200 to 202 °C"}

Request: Given the compound CCOC(=O)c1ccc(OCc2cn(Cc3cnc(C)nc3N)nn2)cc1 [Compound 3] , write its reported melting point.
Response: 190 to 192 °C

Request: Please give measured melting point of the following entry: Cc1ncc(Cn2cc(COc3ccc(Cl)cc3)nn2)c(N)n1 [Compound 2]
Response: 168 to 170 °C

----------
Parameter melting point: see the listing below.

// worked examples, melting point included
{"compound": "Cc1ncc(Cn2cc(COC(=O)c3ccc(F)cc3)nn2)c(N)n1 [Compound 34]", "melting point": "198 to 199 °C"}
{"compound": "Cc1ncc(Cn2nnc(COC(=O)c3ccc([N+](=O)[O-])cc3Cl)c2I)c(N)n1 [Compound 96]", "melting point": "183 to 184 °C"}
{"compound": "Cc1ncc(Cn2cc(COc3ccc(C#N)cc3)nn2)c(N)n1 [Compound 22]", "melting point": "185 to 186 °C"}
{"compound": "Cc1ncc(Cn2nnc(COc3ccc(Cl)cc3Cl)c2I)c(N)n1 [Compound 83]", "melting point": "176 to 177 °C"}

Now look at this entry.
Request: Please look at this compound and report its melting point: Cc1ncc(Cn2cc(COC(=O)COc3ccc([N+](=O)[O-])cc3Cl)nn2)c(N)n1 [Compound 67]
Response: 145 to 148 °C
